system: farnesyl diphosphate synthase (Leishmania major)
procedure_details: Inhibitory activity against Leishmania major Farnesyl-diphosphatesynthase (FPP synthase)
pIC50: −log10 of the molar value.
property: pIC50

{"smiles_str": "O=P(O)(O)C(Nc1ccc(Cl)nc1)P(=O)(O)O", "pIC50": "< 4.00"}

# next molecule below
Req: Suppose we examine the molecule Cc1cc(C)nc(NC(P(=O)(O)O)P(=O)(O)O)c1 ; what pIC50 value has been reported?
Resp: < 4.00
